Test Target: pooled human IgG (human); further: test concentration or dose not given here
Assay Overview: cell-based or functional assay
Observation Type: Enzyme Activity Endpoint Assay (purified): Fab′2 (ng/µL)
Just the number in ng/µL, nothing appended.

Recorded Enzyme Activity Endpoint Assay (purified): Fab′2 of PRT-205 (enzyme) MEVVEVWPYGQNPNGKTEILSQTEDSESLQRLRDIEDFQAEKKKEGVVYTKWLDGVDVDDHDFRKIVDGNIAYYATPLLNGRGFYDINKDFNRDSDKCAAAVAANMFHYWLDRNRDNVDRFLKQNPEKHGIIELPDGQLKLSDFLNTYESDNGYRDKSKLFDFISNNFNGPVWTDKLLDNYINGYAYNYKYGRTIEDPTKNTSKINFFKEVFNEKILTNNHSIRNYNTFSDLLSEALYTGKAIGLSYGPAGLRHSLGHIISVWGADLDADGNVVAIYVTDSDDKKLTIGDERVGLKRYKVSSDDENRLRLTAYEETHNTGGQIRGIYTLDTGKQAWADYFDKTEQTGTDQAEQLEHHHHHH , please. 127
